Reference source for all entries: the supplement of paper PMC4466140

target: ScAbp1; test: SPOT peptide array binding signal intensity (averaged, normalized) (arbitrary units (background-subtracted, floor 0; scale differs between SH3 domains)); higher = stronger binding of the SH3 domain to the peptide
So basically, the class depends on measured SPOT peptide array binding signal intensity, and the ranges are bucket A (below 20), bucket B (20 to below 50), bucket C (50 or more)

Query block: State the class of the binder shown: GKFIPSRPAPKPPSS
Result block: bucket C

Query block: State the class of the binder shown: SRYRRPLTLLLLKPF
Result block: bucket C

Query block: State the class of the binder shown: NLDRSKISLPDFDDE
Result block: bucket A

Query block: State the class of the binder shown: LEFRAILFIPKRAPF
Result block: bucket A

Query block: State the class of the binder shown: YSRKKLPVVLSKMTL
Result block: bucket C

Query block: State the class of the binder shown: VRVKKRPLIRPLNSS
Result block: bucket C

Query block: State the class of the binder shown: NSMRPPLLIPAATTK
Result block: bucket A

Query block: State the class of the binder shown: TKIRRRPQQPLTDFT
Result block: bucket B

Query block: State the class of the binder shown: GDHPKGPPPPPPPPD
Result block: bucket A

Query block: State the class of the binder shown: ISPPASPPPEFDFSK
Result block: bucket A

Query block: State the class of the binder shown: IPSRPAPKPPSSASA
Result block: bucket C

Query block: State the class of the binder shown: TPTSGPPLLPPRNTM
Result block: bucket A

Query block: State the class of the binder shown: GERSRPLVISILSSA
Result block: bucket A

Query block: State the class of the binder shown: DAPASKPSVPPRNYF
Result block: bucket A

Query block: State the class of the binder shown: LKVTPGRRAPTISKI
Result block: bucket B

Query block: State the class of the binder shown: LLIRWLILMPLVGSR
Result block: bucket B

Query block: State the class of the binder shown: LTRRFPFLFPFDTRM
Result block: bucket B

Query block: State the class of the binder shown: DTFLPPPPPPPSNFE
Result block: bucket A

Query block: State the class of the binder shown: AIPPPVPNRPGGTTN
Result block: bucket A

Query block: State the class of the binder shown: GQYRRTIVIPRRFFT
Result block: bucket C

Query block: State the class of the binder shown: FFRRSELYLPNSSKA
Result block: bucket B

Query block: State the class of the binder shown: AERNYAPRLPRRETS
Result block: bucket B

Query block: State the class of the binder shown: GKLKHIPRRPYEIER
Result block: bucket A

Query block: State the class of the binder shown: TKRKRPARLIFYDSK
Result block: bucket B

Query block: State the class of the binder shown: SPLGAPPPPPHKDHL
Result block: bucket A

Query block: State the class of the binder shown: FTLPPPPPPPGLDEL
Result block: bucket A

Query block: State the class of the binder shown: KNRKNLPTIPIRLSG
Result block: bucket C
